Data provenance is ChEMBL document CHEMBL1142738.

pKi: −log10 of the molar value.
Measurement record for Histamine H2 receptor (Homo sapiens); quantity recorded: pKi.

{"compound": "c1nc(CC2CCNCC2)c[nH]1 [IMMEPIP]", "measuredTarget": "Histamine H2 receptor (Homo sapiens)", "pKi": "< 5.00"}

Read the next record carefully.
Q. Tell me pKi of CN1CCC(Cc2c[nH]cn2)CC1 [METHIMEPIP] when tested on Histamine H2 receptor (Homo sapiens).
Sequence (P25021 whole entry): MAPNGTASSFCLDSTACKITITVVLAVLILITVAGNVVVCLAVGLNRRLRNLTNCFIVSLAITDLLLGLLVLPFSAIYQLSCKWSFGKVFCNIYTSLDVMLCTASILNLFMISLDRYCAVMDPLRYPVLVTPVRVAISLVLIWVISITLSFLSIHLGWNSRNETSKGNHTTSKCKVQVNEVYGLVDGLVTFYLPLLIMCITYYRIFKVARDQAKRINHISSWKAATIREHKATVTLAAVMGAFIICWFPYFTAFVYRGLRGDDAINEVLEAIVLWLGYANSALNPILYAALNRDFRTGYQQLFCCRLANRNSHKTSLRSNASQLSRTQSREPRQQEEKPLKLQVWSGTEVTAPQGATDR
A. < 5.00

====

- measuredTarget: Histamine H1 receptor (Homo sapiens)
- Sequence (P35367 whole entry): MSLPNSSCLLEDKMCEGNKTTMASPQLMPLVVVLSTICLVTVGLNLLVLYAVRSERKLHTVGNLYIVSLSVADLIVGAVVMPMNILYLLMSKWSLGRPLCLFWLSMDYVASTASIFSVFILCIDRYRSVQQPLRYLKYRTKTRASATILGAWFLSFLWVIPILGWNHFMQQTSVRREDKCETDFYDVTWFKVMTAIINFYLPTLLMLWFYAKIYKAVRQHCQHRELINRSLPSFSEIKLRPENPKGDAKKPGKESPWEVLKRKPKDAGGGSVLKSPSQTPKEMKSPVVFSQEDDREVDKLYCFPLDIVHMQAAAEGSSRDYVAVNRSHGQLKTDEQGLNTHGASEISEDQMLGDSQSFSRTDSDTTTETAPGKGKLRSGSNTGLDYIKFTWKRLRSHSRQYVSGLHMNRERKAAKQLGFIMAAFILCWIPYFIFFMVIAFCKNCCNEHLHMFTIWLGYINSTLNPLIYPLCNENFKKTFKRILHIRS
pKi: −log10 of the molar value.
measurementKind: pKi

Q. Tell me pKi of CN1CCC(Cc2c[nH]cn2)CC1 [METHIMEPIP] when tested on Histamine H1 receptor (Homo sapiens).
A. < 5.00

====

- measuredTarget: Histamine H3 receptor (Homo sapiens)
- testDescription: Inhibition of cAMP-stimulated beta-galactosidase transcription in SK-N-MC cells expressing human H3 receptor
Form field: pEC50 (one value per entry).
// pEC50 here means minus log10 of the molar concentration (mol/L)

Solved entries:
{"substanceSmiles": "CN1CCC(CCc2c[nH]cn2)CC1", "valueMeasured": 7.30}
{"substanceSmiles": "c1ccc(CN2CCC(Cc3c[nH]cn3)CC2)cc1", "valueMeasured": 7.80}

Q. Tell me pEC50 of CCN1CCC(=Cc2c[nH]cn2)CC1 when tested on Histamine H3 receptor (Homo sapiens).
A. 7.60

====

Measurement record for UniProt Q9H3N8; quantity recorded: Ki.
Sequence (Q9H3N8 whole entry): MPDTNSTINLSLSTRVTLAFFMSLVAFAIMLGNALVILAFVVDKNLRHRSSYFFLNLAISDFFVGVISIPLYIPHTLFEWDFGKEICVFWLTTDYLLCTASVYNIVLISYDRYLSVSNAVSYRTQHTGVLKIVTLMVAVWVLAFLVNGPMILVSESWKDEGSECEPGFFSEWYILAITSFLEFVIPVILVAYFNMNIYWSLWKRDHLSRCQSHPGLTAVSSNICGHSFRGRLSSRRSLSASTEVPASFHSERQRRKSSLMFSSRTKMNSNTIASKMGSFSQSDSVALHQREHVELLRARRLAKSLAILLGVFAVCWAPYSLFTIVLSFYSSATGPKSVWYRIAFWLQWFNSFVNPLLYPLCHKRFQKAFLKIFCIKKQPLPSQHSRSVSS
Respond with the bare value in nM.

{"molecule": "CN1CCC(Cc2c[nH]cn2)CC1 [METHIMEPIP]", "measurementKind": "Ki", "valueMeasured": 2000}

Read the next record carefully.
Q. Tell me Ki of c1nc(CC2CCNCC2)c[nH]1 [IMMEPIP] when tested on UniProt Q9H3N8.
A. 20

====

Measurement record for Histamine H3 receptor (Homo sapiens, UniProt Q9Y5N1); quantity recorded: pKi.
// pKi here means minus log10 of the molar concentration (mol/L)

Solved entries:
{"molecule": "c1ccc(CCN2CCC(Cc3c[nH]cn3)CC2)cc1", "valueMeasured": 8.00}
{"molecule": "c1ccc(CN2CCC(Cc3c[nH]cn3)CC2)cc1", "valueMeasured": 7.30}
{"molecule": "C(=C1CCN(CCc2ccccc2)CC1)c1c[nH]cn1", "valueMeasured": 7.20}
{"molecule": "C(=C1CCN(Cc2ccccc2)CC1)c1c[nH]cn1", "valueMeasured": 6.40}
{"molecule": "c1ccc(CCCN2CCC(Cc3c[nH]cn3)CC2)cc1", "valueMeasured": 7.40}
{"molecule": "c1nc(CC2CCNCC2)c[nH]1 [IMMEPIP]", "valueMeasured": 9.30}
{"molecule": "c1ccc(CN2CCC(CCc3c[nH]cn3)CC2)cc1", "valueMeasured": 7.10}
{"molecule": "CN1CCC(Cc2c[nH]cn2)CC1 [METHIMEPIP]", "valueMeasured": 9.00}

Q. Tell me pKi of C(=C1CCNCC1)c1c[nH]cn1 when tested on Histamine H3 receptor (Homo sapiens, UniProt Q9Y5N1).
Sequence (Q9Y5N1 whole entry): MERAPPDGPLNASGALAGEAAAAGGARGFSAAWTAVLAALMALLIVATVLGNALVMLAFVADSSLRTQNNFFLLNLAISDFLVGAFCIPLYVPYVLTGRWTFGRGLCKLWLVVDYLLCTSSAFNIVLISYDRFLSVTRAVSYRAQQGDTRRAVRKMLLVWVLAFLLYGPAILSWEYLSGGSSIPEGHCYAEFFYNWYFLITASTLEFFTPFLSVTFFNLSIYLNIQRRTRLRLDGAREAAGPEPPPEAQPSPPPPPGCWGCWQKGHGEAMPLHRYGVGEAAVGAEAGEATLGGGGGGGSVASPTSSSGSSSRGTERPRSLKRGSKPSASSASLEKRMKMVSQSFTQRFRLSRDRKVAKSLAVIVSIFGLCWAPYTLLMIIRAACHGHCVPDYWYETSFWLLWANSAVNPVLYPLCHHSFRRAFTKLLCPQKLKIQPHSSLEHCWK
A. 8.20

Q. Tell me pKi of c1nc(CC2CCN(C3CCCCC3)CC2)c[nH]1 when tested on Histamine H3 receptor (Homo sapiens, UniProt Q9Y5N1).
A. 7.80

Q. Tell me pKi of c1ccc(CCN2CCC(CCc3c[nH]cn3)CC2)cc1 when tested on Histamine H3 receptor (Homo sapiens, UniProt Q9Y5N1).
A. 7.40

Q. Tell me pKi of CN1CCC(CCc2c[nH]cn2)CC1 when tested on Histamine H3 receptor (Homo sapiens, UniProt Q9Y5N1).
A. 7.30

====

Form field: EC50 (one value per entry).
- measuredTarget: Histamine H3 receptor (Homo sapiens)
- testDescription: Inhibition of cAMP-stimulated beta-galactosidase transcription in SK-N-MC cells expressing human H3 receptor

Solved entries:
{"compound": "c1ccc(CCCN2CCC(Cc3c[nH]cn3)CC2)cc1", "EC50": "31.6 nM"}
{"compound": "c1nc(CC2CCN(C3CCCCC3)CC2)c[nH]1", "EC50": "3.98 nM"}
{"compound": "CN1CCC(Cc2c[nH]cn2)CC1 [METHIMEPIP]", "EC50": "0.316 nM"}
{"compound": "CC(C)N1CCC(CCc2c[nH]cn2)CC1", "EC50": "200 nM"}
{"compound": "C(=C1CCN(CCc2ccccc2)CC1)c1c[nH]cn1", "EC50": "15.8 nM"}

Q. Tell me EC50 of CCN1CCC(CCc2c[nH]cn2)CC1 when tested on Histamine H3 receptor (Homo sapiens).
A. > 10000 nM

====

Form field: pEC50 (one value per entry).
- measuredTarget: Histamine H3 receptor (Homo sapiens, UniProt Q9Y5N1)
- testDescription: Inhibition of cAMP-stimulated beta-galactosidase transcription in SK-N-MC cells expressing human H3 receptor
// pEC50 here means minus log10 of the molar concentration (mol/L)

Solved entries:
{"substanceSmiles": "CCN1CCC(Cc2c[nH]cn2)CC1", "pEC50": 8.40}
{"substanceSmiles": "c1ccc(CCN2CCC(Cc3c[nH]cn3)CC2)cc1", "pEC50": 8.10}
{"substanceSmiles": "c1nc(CCC2CCNCC2)c[nH]1", "pEC50": 7.90}
{"substanceSmiles": "C(=C1CCN(Cc2ccccc2)CC1)c1c[nH]cn1", "pEC50": 7.10}

Q. Give the reported pEC50 for this compound. CC(C)N1CCC(Cc2c[nH]cn2)CC1
A. 8.10

Q. Give the reported pEC50 for this compound. C(=C1CCN(C2CCCCC2)CC1)c1c[nH]cn1
A. 7.30

Q. Give the reported pEC50 for this compound. c1nc(CCC2CCN(C3CCCCC3)CC2)c[nH]1
A. 6.50

Q. Give the reported pEC50 for this compound. CC(C)N1CCC(=Cc2c[nH]cn2)CC1
A. 7.20

Q. Give the reported pEC50 for this compound. CN1CCC(=Cc2c[nH]cn2)CC1
A. 8.60
